study-target: CARTp binding site in PC12 cells (prospective CARTp receptor) (rat)
protocol-text: displacement of 125I-CART(61-102) from PC12 cells, relative to CART(61-102)
Bridge positions count the residues as written; N and C are the ends. Square brackets hold non-standard residues; d marks the D form. Ends that are not written are not given here. * marks the point of attachment. Palmitoyl = CCCCCCCCCCCCCCCC(=O)*; Nle = CCCC[C@H](N)C(=O)O; Octanoyl = CCCCCCCC(=O)*
Lab note - cut at 80% for % binding CART(61-102): MET if strictly below, NOT MET if not.

| binder | assigned-category |
| --- | --- |
| Octanoyl-KYGQVP[Nle]ADAGEQCAVRKGARIGKLADCPRGTSCNSFLLKCL (disulfide 14-34, 28-41) [Oct-CART] | MET |
| KYGQVPMCDAGEQCAVRKGARIGKLCDCPRGTSCNSFLLKCL (disulfide 14-34, 8-26, 28-41) [CART(61-102)] | NOT MET |
| Palmitoyl-KYGQVP[Nle]ADAGEQCAVRKGARIGKLADCPRGTSCNSFLLKCL (disulfide 14-34, 28-41) [Palm-CART] | NOT MET |
| KYGQVP[Nle]ADAGEQCAVRKGARIGKLADCPRGTSCNSFLLKCL (disulfide 14-34, 28-41) [CART 2S-S] | MET |

These measurements were taken from patent EP4176934A1.
